- Target Or System: PKC epsilon (Homo sapiens)
- Construct: purchased Invitrogen P2282
- Sequence (Q02156 whole entry): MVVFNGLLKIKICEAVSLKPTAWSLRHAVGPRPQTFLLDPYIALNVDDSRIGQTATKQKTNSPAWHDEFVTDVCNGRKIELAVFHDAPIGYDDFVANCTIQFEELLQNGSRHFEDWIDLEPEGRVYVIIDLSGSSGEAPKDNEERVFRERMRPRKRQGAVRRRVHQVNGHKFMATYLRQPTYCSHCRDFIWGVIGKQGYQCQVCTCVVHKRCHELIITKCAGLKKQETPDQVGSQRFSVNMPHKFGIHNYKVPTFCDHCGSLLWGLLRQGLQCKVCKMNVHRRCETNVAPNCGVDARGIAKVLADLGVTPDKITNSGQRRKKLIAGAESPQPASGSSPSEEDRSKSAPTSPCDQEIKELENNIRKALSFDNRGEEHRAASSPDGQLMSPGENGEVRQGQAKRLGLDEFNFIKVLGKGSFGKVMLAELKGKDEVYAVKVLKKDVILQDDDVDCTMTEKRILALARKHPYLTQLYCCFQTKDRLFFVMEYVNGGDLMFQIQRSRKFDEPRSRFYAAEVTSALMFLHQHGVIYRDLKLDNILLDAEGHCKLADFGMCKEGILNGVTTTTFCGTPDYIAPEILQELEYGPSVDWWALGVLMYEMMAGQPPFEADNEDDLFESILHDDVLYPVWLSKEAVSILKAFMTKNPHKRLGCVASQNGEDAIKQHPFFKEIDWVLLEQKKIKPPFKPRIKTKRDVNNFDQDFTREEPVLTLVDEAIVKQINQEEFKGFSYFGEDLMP
- Assay Notes: Biochemical assay for PKC epsilon (fluorescence polarization, Protein Kinase C Assay Kit, Red)
- Measurement Setup: Table 2, compounds of Formula XIII; read-out: IC50 μM PKCε
Counter-ions that a name gives are not always drawn.
Endpoint Name: IC50

IN: Form field: IC50 recorded for CC1CC1C(=O)NCC(N)c1ccc(C(=O)Nc2ccncc2)cc1 (stereo not shown) with PKC epsilon (Homo sapiens) (enter value)
OUT: 0.5 to 5 µM

IN: Next entry: NC(CNC(=O)Cc1ccccn1)c1ccc(C(=O)Nc2ccncc2)cc1 (stereo not shown)
OUT: 5 to 50 µM

IN: Next entry: NC(CNC(=O)C1(c2ccc(Cl)cc2)CC1)c1ccc(C(=O)Nc2ccncc2)cc1 (stereo not shown) [Compound 168, dihydrochloride]
OUT: < 0.05 µM

IN: Next entry: NC(CNC(=O)CNC(=O)c1ccco1)c1ccc(C(=O)Nc2ccncc2)cc1 (stereo not shown)
OUT: 5 to 50 µM

* * *

- Target Or System: PKC epsilon (Homo sapiens)
- Construct: purchased Invitrogen P2282
- Assay Notes: Biochemical assay for PKC epsilon (fluorescence polarization, Protein Kinase C Assay Kit, Red)
- Measurement Setup: compounds of Formula XIV, Table 3; read-out: IC50 μM PKCε
- Description: The compounds were tested for inhibition of PKC epsilon. The inhibition assays were performed with a fluorescence polarization (FP) assay using the commercially available Protein Kinase C Assay Kit, Red, from Invitrogen (Product ID. No. P2941), essentially in accordance with the protocol supplied by the manufacturer. […] The results were fitted to a curve using the XL-Fit algorithm and […] were calculated for each fitted curve, again using the XL-Fit algorithm.
Endpoint Name: IC50

1) NC(CC(=O)NCc1cccc([N+](=O)[O-])c1)c1ccc(C(=O)Nc2ccncc2)cc1 (stereo not drawn) [Compound 272] : 0.5 to 5 µM

IN: Can you share its IC50? I mean this compound: NC(CC(=O)NC1CCCc2ccccc21)c1ccc(C(=O)Nc2ccncc2)cc1 (single isomer, unassigned) [Compound 222]
OUT: 5 to 50 µM

IN: Next entry: NC(CC(=O)NCc1cc(Cl)cc(Cl)c1)c1ccc(C(=O)Nc2ccncc2)cc1 (stereo not drawn) [Compound 250]
OUT: 0.5 to 5 µM

IN: Next entry: NC(CC(=O)NCCc1ccc(F)cc1)c1ccc(C(=O)Nc2ccncc2)cc1 (stereo not drawn) [Compound 307]
OUT: 0.05 to 0.5 µM

IN: Next entry: NC(CC(=O)NCc1cccc(F)c1)c1ccc(C(=O)Nc2ccncc2)cc1 (stereo not drawn) [Compound 257]
OUT: 0.5 to 5 µM

* * *

- Target Or System: human ROCKα/ROCKII mix (Homo sapiens)
- Construct: purchased Upstate Biotechnology 14-451
- Sequence (O75116 11-552 limits assumed): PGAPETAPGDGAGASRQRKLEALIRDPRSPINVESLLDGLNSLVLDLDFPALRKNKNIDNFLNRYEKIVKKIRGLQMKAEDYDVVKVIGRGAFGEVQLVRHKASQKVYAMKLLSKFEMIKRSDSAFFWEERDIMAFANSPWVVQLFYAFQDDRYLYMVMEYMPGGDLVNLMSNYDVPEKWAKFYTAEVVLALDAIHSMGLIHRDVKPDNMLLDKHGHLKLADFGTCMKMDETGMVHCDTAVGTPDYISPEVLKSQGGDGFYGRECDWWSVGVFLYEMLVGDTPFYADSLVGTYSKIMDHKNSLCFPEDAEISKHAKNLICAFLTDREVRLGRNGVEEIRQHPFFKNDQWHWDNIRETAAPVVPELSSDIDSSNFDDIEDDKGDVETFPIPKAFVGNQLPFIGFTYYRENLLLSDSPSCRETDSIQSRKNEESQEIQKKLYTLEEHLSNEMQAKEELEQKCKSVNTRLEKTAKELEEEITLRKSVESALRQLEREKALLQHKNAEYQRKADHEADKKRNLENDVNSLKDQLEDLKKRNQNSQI
- Assay Notes: Biochemical assay for ROCK (fluorescence polarization, ROCK IMAP Kit)
- Measurement Setup: compounds of Formula XIV, Table 3
Endpoint Name: IC50

IN: Can you share its IC50? I mean this compound: NC(CC(=O)NCc1ccc(C(F)(F)F)c(F)c1)c1ccc(C(=O)Nc2ccncc2)cc1 (stereo not shown) [Compound 267]
OUT: 0.05 to 0.5 µM

IN: Next entry: COCCNC(=O)CC(N)c1ccc(C(=O)Nc2ccncc2)cc1 (stereo not shown) [Compound 180]
OUT: 0.05 to 0.5 µM

IN: Next entry: NC(CC(=O)NCCc1ccc(Cl)c(Cl)c1)c1ccc(C(=O)Nc2ccncc2)cc1 (stereo not shown) [Compound 304]
OUT: 0.05 to 0.5 µM

IN: Next entry: NC(CC(=O)N[C@H]1CCc2ccccc21)c1ccc(C(=O)Nc2ccncc2)cc1 (stereo partly shown) [Compound 357]
OUT: 0.05 to 0.5 µM
